# Tested on: DU-145 prostate
# ASSAY_SUMMARY: NCI-60 one-dose screen, 48 h
# SETTINGS: 10 µM unless noted
The panel holds about 83,000 compounds, 20% with a hit somewhere; the sample as a whole holds those more often. Calls of active or inactive are those of the source. How the source made its calls: active means growth percent below 10; inactive means the rest.
Bench note: report the call from active, inactive

[
  {
    "COMPOUND": "CC(=O)Nc1nc(N)nc(NC(C)=O)c1N=O",
    "CLASSIFICATION": "inactive"
  },
  {
    "COMPOUND": "COc1ccc(-c2cnnn2-c2nonc2-n2cccc2)cc1OC",
    "CLASSIFICATION": "inactive"
  },
  {
    "COMPOUND": "COc1ccc(S(=O)(=O)Nc2cc(/C=C\\c3cc(OC)c(OC)c(OC)c3)cc(OC)c2OC)cc1",
    "CLASSIFICATION": "active"
  }
]

Now examine the next entry.
Query: How did this test come out for "COc1ccccc1CNCCCN1C(=O)c2ccc3c4c(ccc(c24)C1=O)C(=O)N(CCCNCCCCNCCCN)C3=O" ?
Reply: active
